meta.source: patent US20190177417A1

Biological target: T1, Axl protein (human, UniProt P30530 26-451)
T1 construct: extracellular domain; also called human Axl; hAxl
T1 sequence (looked up): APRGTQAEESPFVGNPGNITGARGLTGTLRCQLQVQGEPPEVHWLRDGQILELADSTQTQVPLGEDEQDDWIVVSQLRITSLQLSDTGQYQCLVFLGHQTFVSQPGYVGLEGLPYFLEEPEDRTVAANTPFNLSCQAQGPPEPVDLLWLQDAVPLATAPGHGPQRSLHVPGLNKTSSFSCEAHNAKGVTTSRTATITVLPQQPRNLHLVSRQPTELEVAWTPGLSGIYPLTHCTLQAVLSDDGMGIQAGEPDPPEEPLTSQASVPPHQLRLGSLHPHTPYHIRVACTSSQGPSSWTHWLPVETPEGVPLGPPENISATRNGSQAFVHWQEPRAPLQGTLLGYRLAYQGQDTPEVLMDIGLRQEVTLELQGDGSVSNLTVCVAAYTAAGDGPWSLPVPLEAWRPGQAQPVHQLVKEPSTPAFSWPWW
Assay: ELISA, 1:9 dilution, pH 6.0 over pH 7.4
Measured Affinity ELISA CPE mutant ratio (1:9, pH 6.0/7.4) of individual entries
Readout: Affinity ELISA CPE mutant ratio (1:9, pH 6.0/7.4) (ratio)

Binder	Value Reported
HC-T030A (antibody, V domains shown) VH: EVQLVQSGAEVKKPGATVKISCKVSGYSFAGHTMNWIRQPPGKGLEWIGLIKPSNGGTSYNQKFKGRVTISADKSISTAYLQWSSLKASDTAMYYCAHGHYESYFAMDYWGQGTLVTVSS VL: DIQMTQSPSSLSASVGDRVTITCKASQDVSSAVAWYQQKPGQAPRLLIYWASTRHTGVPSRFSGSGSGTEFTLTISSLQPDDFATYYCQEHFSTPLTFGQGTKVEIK	1.76
HC-E102D (antibody, V domains shown) VH: EVQLVQSGAEVKKPGATVKISCKVSGYSFTGHTMNWIRQPPGKGLEWIGLIKPSNGGTSYNQKFKGRVTISADKSISTAYLQWSSLKASDTAMYYCAHGHYDSYFAMDYWGQGTLVTVSS VL: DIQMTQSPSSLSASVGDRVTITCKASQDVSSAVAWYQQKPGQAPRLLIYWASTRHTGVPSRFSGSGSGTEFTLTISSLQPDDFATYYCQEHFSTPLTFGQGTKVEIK	2.85
HC-E102V (antibody, V domains shown) VH: EVQLVQSGAEVKKPGATVKISCKVSGYSFTGHTMNWIRQPPGKGLEWIGLIKPSNGGTSYNQKFKGRVTISADKSISTAYLQWSSLKASDTAMYYCAHGHYVSYFAMDYWGQGTLVTVSS VL: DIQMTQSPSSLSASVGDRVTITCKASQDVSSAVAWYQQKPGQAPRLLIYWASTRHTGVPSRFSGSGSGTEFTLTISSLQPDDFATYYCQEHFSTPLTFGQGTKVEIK	2.51
HC-E102G (antibody, V domains shown) VH: EVQLVQSGAEVKKPGATVKISCKVSGYSFTGHTMNWIRQPPGKGLEWIGLIKPSNGGTSYNQKFKGRVTISADKSISTAYLQWSSLKASDTAMYYCAHGHYGSYFAMDYWGQGTLVTVSS VL: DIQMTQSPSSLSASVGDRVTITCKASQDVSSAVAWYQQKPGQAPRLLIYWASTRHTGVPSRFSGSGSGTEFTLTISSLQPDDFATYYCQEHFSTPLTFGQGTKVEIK	2.68
HC-S103N (antibody, V domains shown) VH: EVQLVQSGAEVKKPGATVKISCKVSGYSFTGHTMNWIRQPPGKGLEWIGLIKPSNGGTSYNQKFKGRVTISADKSISTAYLQWSSLKASDTAMYYCAHGHYENYFAMDYWGQGTLVTVSS VL: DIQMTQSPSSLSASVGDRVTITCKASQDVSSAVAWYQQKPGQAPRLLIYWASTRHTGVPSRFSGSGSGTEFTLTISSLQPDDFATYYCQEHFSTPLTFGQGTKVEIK	3.18
